// reported koff per item
Target: T1, human CD19 antigen (human, UniProt P15391 20-291, limits assumed)
T1 sequence (looked up): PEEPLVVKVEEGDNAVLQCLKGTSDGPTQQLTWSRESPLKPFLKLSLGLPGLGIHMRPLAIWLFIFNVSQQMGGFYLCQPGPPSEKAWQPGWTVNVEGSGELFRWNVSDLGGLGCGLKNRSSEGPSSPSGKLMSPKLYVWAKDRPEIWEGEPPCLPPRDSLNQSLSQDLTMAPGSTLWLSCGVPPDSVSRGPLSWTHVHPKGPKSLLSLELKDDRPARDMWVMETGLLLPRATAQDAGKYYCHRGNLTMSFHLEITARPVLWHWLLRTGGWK
Assay: SPR (Biacore), antibody captured via Fc
Description: Part of the antibodies in Example 1 were tested for affinity, and the composition of the heavy chain variable regions and the light chain variable regions of the antibodies to be tested are shown in Table 1. HEK293 cells were used to express the antibodies to be tested and Protein A was used for purification. The surface plasmon resonance technique (SPR) was used for determination, and the Fc capture method was used for antibody fixation.

[
  {
    "binder": "humanized CD19 antibody VH5 + VL3 (antibody, V domains shown, also called Antibody No. 15) VH: QVQLQESGPGLVKPSQTLSVTCTVSGVSLPDYGVSWIRQPPGKGLEWLGVIWGSETTYYNSALKSRLTISKDTSKNQVSLKLSSLTAADTAVYYCAKHYYYGGSYAMDYWGQGTTVTVSS VL: DIQMTQSPSSLSASVGDRVTITCRASQDISKYLNWYQQKPGKAPKLLIYHTSRLHSGVPSRFSGSGSGTDYTLTISSLQPEDIATYYCQQGNTLPYTFGGGTKLEIK",
    "koff, s⁻¹": 0.00143
  },
  {
    "binder": "humanized CD19 antibody VH4 + VL3 (antibody, V domains shown, also called Antibody No. 12) VH: QVQLQESGPGLVKPSQTLSLTCTVSGVSLPDYGVSWIRQPPGKGLEWLGVIWGSETTYYNSALKSRLTISKDTSKNQVSLKLSSVTAADTAVYYCAKHYYYGGSYAMDYWGQGTTVTVSS VL: DIQMTQSPSSLSASVGDRVTITCRASQDISKYLNWYQQKPGKAPKLLIYHTSRLHSGVPSRFSGSGSGTDYTLTISSLQPEDIATYYCQQGNTLPYTFGGGTKLEIK",
    "koff, s⁻¹": 0.000437
  },
  {
    "binder": "humanized CD19 antibody VH2 + VL3 (antibody, V domains shown, also called Antibody No. 6) VH: QVQLQESGPGLVKPSQTLSLTCTVSGVSLPDYGVSWIRQPPGKGLEWIGVIWGSETTYYNSALKSRVTISKDTSKNQVSLKLSSVTAADTAVYYCAKHYYYGGSYAMDYWGQGTTVTVSS VL: DIQMTQSPSSLSASVGDRVTITCRASQDISKYLNWYQQKPGKAPKLLIYHTSRLHSGVPSRFSGSGSGTDYTLTISSLQPEDIATYYCQQGNTLPYTFGGGTKLEIK",
    "koff, s⁻¹": 0.000395
  }
]
